- testSystem: T1, TJP3_3, O95049
- T1 sequence (O95049 375-456, limits assumed, looked up): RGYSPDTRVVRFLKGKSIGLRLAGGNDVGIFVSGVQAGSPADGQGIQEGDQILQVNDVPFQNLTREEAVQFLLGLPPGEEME
- test: holdup assay
- Set-up: key: below the threshold = too weak to quantify, mostly under pKd 3.1 to 4
- condition: plain residues with an end cap or a label only (N-terminal biotin on a linker: ado-ado)
measuredMetric: pKd

# count of solved cases: 8
Please report the recorded pKd for DYSNLRETDI [ADRA1D, P25100] . below the threshold

Please report the recorded pKd for PEKVSNTTVV [IGSF5, Q9NSI5] . below the threshold

Please report the recorded pKd for MQILSKPEFI [NPSR1, Q6W5P4] . below the threshold

Please report the recorded pKd for DFKHTKSFII [JAM2, P57087] . below the threshold

Please report the recorded pKd for GNDPDRGTSI [GRID2, O43424] . below the threshold

Please report the recorded pKd for QRYPGNQTTC [CCL24, O00175] . below the threshold

Please report the recorded pKd for TNSKQGETTV [FZD1, Q9UP38] . below the threshold

Please report the recorded pKd for KKTPVSRSHL [SLC22A3, O75751] . below the threshold

Others:
Please report the recorded pKd for SKQFDKNAYV [CLDN10, P78369] . 3.68

Please report the recorded pKd for PALKNGQYWV [CSPG4, Q6UVK1] . 4.81

Please report the recorded pKd for VYEVPVETKF [SLC26A3, P40879] . below the threshold

Please report the recorded pKd for PKSNSSKEYV [CLDN7, O95471] . below the threshold

Please report the recorded pKd for LLQEEWETVM [PTH1R, Q03431] . below the threshold

Please report the recorded pKd for TKEIPNCTSV [SORCS3, Q9UPU3] . 3.54

Please report the recorded pKd for THREVKFTSL [CD46, P15529] . below the threshold

Please report the recorded pKd for RGKNRRQSIF [CDK18, Q07002] . below the threshold

Please report the recorded pKd for ADEMICITTL [CACNA1D, Q01668] . below the threshold

Please report the recorded pKd for VKQYADVEGF [HNRNPK, P61978;P61978-2] . below the threshold

Please report the recorded pKd for SSSVNVSSNL [CXCR1, P25024] . below the threshold

Please report the recorded pKd for KEKASTETEC [TRPM1, Q7Z4N2] . below the threshold
